Below, each entry is listed alongside its reported Emax.
Biological target: human MC4R (Homo sapiens, UniProt P32245)
Construct: host or cells: HEK-293 cells stably expressing the GScAMP22F split-luciferase cAMP sensor and hMC4R, G418 selection
Sequence (P32245 whole entry): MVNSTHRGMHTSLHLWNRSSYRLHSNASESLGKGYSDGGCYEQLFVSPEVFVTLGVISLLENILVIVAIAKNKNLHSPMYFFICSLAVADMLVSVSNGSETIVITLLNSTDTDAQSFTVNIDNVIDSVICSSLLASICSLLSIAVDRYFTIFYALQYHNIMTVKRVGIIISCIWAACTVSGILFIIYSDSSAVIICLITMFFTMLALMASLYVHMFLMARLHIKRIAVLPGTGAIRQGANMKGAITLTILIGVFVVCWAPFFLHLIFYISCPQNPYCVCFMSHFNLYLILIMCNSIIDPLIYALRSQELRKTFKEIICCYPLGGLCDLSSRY
Assay: split-luciferase cAMP sensor assay, agonist mode (measurement window 1), hMC4R
Type: cell-based
Settings: % maximal activation, agonist mode; read-out: MC4R cAMP % max activation
Positions of bridges follow the written chain, without caps; N, C: chain ends. Non-standard residues stand in square brackets, D forms with d. Residues, ends and D or L forms follow the SMILES beside them. Orn = NCCC[C@H](N)C(=O)O; Aib = CC(C)(N)C(=O)O
Reply with the number, then its unit.

Use these answered entries as a reference point.
Value of Emax reported for the molecule CC(=O)N[C@@H](CCCNC(=N)N)C(=O)N[C@H]1CSSC[C@@H](C(N)=O)NC(=O)[C@H](Cc2ccccc2)NC(=O)[C@H](CCCNC(=N)N)NC(=O)[C@@H](Cc2ccccc2)NC(=O)[C@H](CCCN)NC(=O)C(C)(C)NC1=O [CTX-1602, Arg-cyclo(Cys-Aib-Orn-D-Phe-Arg-Phe-Cys)] (Ac-RC[Aib][Orn][dF]RFC-NH2; disulfide 2-8) is 97%

Value of Emax reported for the molecule C[C@H]1NC(=O)CSC[C@@H](C(N)=O)NC(=O)[C@H](Cc2ccccc2)NC(=O)[C@H](CCCNC(=N)N)NC(=O)[C@@H](Cc2ccccc2)NC(=O)[C@H](Cc2c[nH]cn2)NC1=O [CTX-1656] ({CH2CO}-[dA]H[dF]RFC-NH2; thioether N-6) is 98%

Value of Emax reported for the molecule CC1(C)NC(=O)CSC[C@@H](C(N)=O)NC(=O)[C@H](Cc2ccccc2)NC(=O)[C@H](CCCNC(=N)N)NC(=O)[C@@H](Cc2ccccc2)NC(=O)[C@H](Cc2c[nH]cn2)NC1=O [CTX-1650] ({CH2CO}-[Aib]H[dF]RFC-NH2; thioether N-6) is 113%

Could you now look at the following molecule, please?
Value of Emax reported for the molecule N=C(N)NCCC[C@@H]1NC(=O)CNC(=O)CSC[C@@H](C(N)=O)NC(=O)[C@H](Cc2ccccc2)NC(=O)[C@H](CCCNC(=N)N)NC(=O)[C@@H](Cc2ccccc2)NC1=O [CTX-1654] ({CH2CO}-GR[dF]RFC-NH2; thioether N-6) is 81%
